Tested on: SARS coronavirus 3C-like protease (3CLpro, nsp5)
Assay: blockers of SARS 3CLpro activity – biochemical, fluorescence, set 2, late-stage follow-up (AID 488984)
Settings: recombinant 3CLpro, fluorogenic peptide cleavage; at 100 µM
Calls of active or inactive are those of the source. No stated cut-off is given here; in the data, active means inhibition above about 55%; inactive means the rest.
Outcome codes: active, inactive

| molecule | category label |
| --- | --- |
| CC(C)(C)NC(=O)C(c1ccsc1)N(C(=O)Cn1nnc2ccccc21)c1ccc(C(C)(C)C)cc1 (stereo not given) | inactive |
| CC(C)c1ccc(N(C(=O)c2ccco2)C(C(=O)NC(C)(C)C)c2cccnc2)cc1 (stereo not given) | active |
| CC(C)C(=O)Nc1ccc(N(C(=O)Cn2cnc3ccccc32)C(C(=O)NC(C)(C)C)c2ccsc2)cc1 (stereo not given) | active |
| CC(C)(C)NC(=O)C(c1cccnc1)N(C(=O)Cc1cccnc1)c1ccc(OCF)cc1 (stereo not given) | inactive |
| CC(C)(C)NC(=O)C(c1ccsc1)N(C(=O)c1n[nH]c2ccccc12)C1CC1 (stereo not given) | inactive |
